- target or system: VHR (Homo sapiens)
- Construct: made in house; host or cells: E. coli
- Sequence (P51452 whole entry, species assumed): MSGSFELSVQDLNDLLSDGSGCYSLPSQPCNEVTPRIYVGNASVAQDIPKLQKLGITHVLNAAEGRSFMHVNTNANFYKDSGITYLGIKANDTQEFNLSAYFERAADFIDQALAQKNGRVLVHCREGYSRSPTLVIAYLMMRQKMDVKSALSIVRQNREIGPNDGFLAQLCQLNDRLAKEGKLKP
- experiment summary: Tyrosine phosphatase selectivity (pNPP substrate), VHR
- Type: biochemical
- measurement context: selectivity ratio VHR over SHP2
Provide the recorded IC50PTP/IC50SHP2 VHR for the entries that follow.
Could you keep your reply to the number by itself?

*Q* With VHR (Homo sapiens) as the test system, provide measured IC50PTP/IC50SHP2 VHR for this compound: Cn1cc(-c2ccc(NC(=O)C(=O)Nc3ccc(-c4cc5cc(F)c(-c6noc(=O)[nH]6)cc5n4C4CCC4)cc3)cc2)cn1 [Example 123]
*A* 17.3

*Q* With VHR (Homo sapiens) as the test system, provide measured IC50PTP/IC50SHP2 VHR for this compound: CC1(n2c(-c3ccc(NC(=O)C(=O)Nc4ccc(N5CCC6(CCOC6)CC5)cc4)cc3)cc3cc(F)c(-c4nnn[nH]4)cc32)CCC1 [Example 68]
*A* 520.8

*Q* With VHR (Homo sapiens) as the test system, provide measured IC50PTP/IC50SHP2 VHR for this compound: O=C(Nc1ccc(-c2ccsc2)cc1)C(=O)Nc1ccc(-c2oc3cc(F)c(-c4nnn[nH]4)cc3c2C2CCC2)cc1 [Example 130]
*A* 120
